ASSAY COMMENT: AUC (0 to 12hrs) in Sprague-Dawley rat at 15 mg/kg, po by LC-MS/MS analysis
Assay type: ADME, organism-based
CONDITION SUMMARY: in vivo
TEST READOUT: AUC(0-t) (ng·h/mL)

[
  {
    "STRUCTURE STRING": "Cc1ccccc1CN1C(=O)C2=C(CCN(Cc3ccccc3)C2)N2CCN=C12",
    "TEST READOUT": "AUC(0-t)",
    "SCALE UNIT": "ng·h/mL",
    "VAL": 894
  }
]

----------
SYSTEM NAME: ATP-dependent Clp protease proteolytic subunit, mitochondrial (Homo sapiens)
Sequence (Q16740 whole entry): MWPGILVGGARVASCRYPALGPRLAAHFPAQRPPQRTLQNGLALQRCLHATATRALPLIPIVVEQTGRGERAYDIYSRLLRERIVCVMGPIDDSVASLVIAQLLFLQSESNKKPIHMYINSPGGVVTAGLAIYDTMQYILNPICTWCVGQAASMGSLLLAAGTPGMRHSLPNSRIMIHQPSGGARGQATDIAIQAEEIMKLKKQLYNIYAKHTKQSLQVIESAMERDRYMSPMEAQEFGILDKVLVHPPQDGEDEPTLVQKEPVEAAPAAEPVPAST
ASSAY COMMENT: Binding affinity to human ClpP expressed in Escherichia coli assessed as dissociation constant by ITC method

[
  {
    "MOLECULE": "CC(ONC(=O)c1cc(C(F)(F)F)cc(C(F)(F)F)c1)C(=O)Nc1ccc(Cl)cc1 (stereo unspecified)",
    "Kd [µM]": 8.41
  }
]
